- Measurement target: indoleamine 2,3-dioxygenase (IDO) (Homo sapiens, UniProt P14902)
- Construct: replaced with media containing IFNγ (#285-IF/CF, R&D Systems) at a final concentration of 25 ng/mL; endogenous in cells; host or cells: HeLa (ATCC CCL-2), IFN-gamma stimulated
- Sequence (P14902 whole entry): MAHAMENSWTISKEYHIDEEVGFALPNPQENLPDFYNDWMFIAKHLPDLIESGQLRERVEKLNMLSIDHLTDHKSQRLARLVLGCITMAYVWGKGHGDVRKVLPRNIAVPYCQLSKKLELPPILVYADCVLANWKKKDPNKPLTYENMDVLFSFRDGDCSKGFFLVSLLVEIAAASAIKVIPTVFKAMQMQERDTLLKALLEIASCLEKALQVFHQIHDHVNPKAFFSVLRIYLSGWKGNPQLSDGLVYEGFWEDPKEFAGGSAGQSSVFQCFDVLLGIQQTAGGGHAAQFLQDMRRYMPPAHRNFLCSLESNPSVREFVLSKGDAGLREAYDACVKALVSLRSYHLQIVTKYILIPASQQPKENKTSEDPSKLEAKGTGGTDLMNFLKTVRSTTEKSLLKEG
- Experiment summary: HeLa cell-based indoleamine 2,3-dioxygenase (IDO) assay, kynurenine production
- Conditions: HeLa cells, IFNγ 25 ng/mL, 48 hour incubation; read-out: IDO Hela IC50
Recorded metric: pIC50
Please express pIC50 as -log10 of the molar concentration.

Past entries and their recorded results:
{"Compound": "CCO[C@@H](c1ccc([C@H](CC)CC(=O)O)cc1Nc1cnc(CC)nc1)C(F)(F)F (single isomer, unassigned)", "Measurement target": "indoleamine 2,3-dioxygenase (IDO) (Homo sapiens, UniProt P14902)", "Numeric result": 7.70}
{"Compound": "CCOc1cnc(Nc2cc([C@H](CC)CC(=O)O)ccc2[C@@H](OCC)C(F)(F)F)cn1 (single isomer, unassigned)", "Measurement target": "indoleamine 2,3-dioxygenase (IDO) (Homo sapiens, UniProt P14902)", "Numeric result": 8.00}

Now turn to the next compound.
Query: Determine its reported pIC50: CCO[C@H](c1ccc([C@@H](CC)CC(=O)O)cc1NC(=O)Nc1ccc(Cl)cc1F)C(F)(F)F (single isomer, unassigned)
Response: 8.00

These measurements were taken from patent US11253525B2.
